Data origin: the supplement of paper PMC6555819

- Tested on: RARg homodimer (NR concentration 270 nM)
- method: PBM binding z-score (relative to random genomic background probes); higher = stronger binding; sequences stand for … in GC…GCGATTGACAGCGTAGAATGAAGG
assay metric: PBM binding z-score
Kindly provide the number alone.

* CCTTACGGGTGACTGACAGGTTATAGCATTTGGA | 0.559
* AGTCACAGTTCATCTAGGTAACGTAAGATATGCT | 2.66
* GCAGACATGTGAAACGCAGGTAACTCAGGGTGGC | -0.391
* CCTGCTAGGTCAATGGTGAGCTAAAGCAGCTCGC | 4.12
* TTACCAAGGGGAAGGTCGTTGATCCCTCTGTAGA | -0.054

For this sequence ( TGAATAAGGTTAAAGATCAGGGAACGTGGCGTCG ), measured PBM binding z-score is 1.72

====

- Test system: PPARg:RXRa DBDmut IVT, anti-RXR (DBD mutation: RXRa K156A/R161A, NR concentration 270 nM, RXRa partner concentration 90 nM)
- method: PBM binding z-score (relative to random genomic background probes); higher = stronger binding; sequences stand for … in GC…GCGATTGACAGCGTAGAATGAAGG
Parameter threshold = 3. Response is true (1) when PBM binding z-score meets or exceeds it, else false (0).

Worked cases, answers included:
- GCTTGTAGATAAAGGTTAAGAAAGACTAAGCTAA: false (0)
- CCTAGCAGGCCAATCTGGGTCACTCTAGGCTTGA: true (1)
- GCATATAGGTAATACAAGGTGAAAGGCCGATTGT: true (1)
- ACTACTAGTTGACTTAGGGCAACCGATACGACGC: false (0)
- CCTAGTGGGCCAAAAAGGTCATTGATGCCGATAA: true (1)
- CAAACGAGGGCATGAGTTGATAGCAAATGCCGAT: false (0)

Then this sequence:
Hi team, for CGAACTAGTTCAGAACAGGACAGTGAAGGATGAT , is the recorded PBM binding z-score at or above 3? false (0)

====

- System: RARb:RXRa (NR concentration 270 nM, RXRa partner concentration 90 nM)
- method: PBM binding z-score (relative to random genomic background probes); higher = stronger binding; sequences stand for … in GC…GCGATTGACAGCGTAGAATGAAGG
assay metric: PBM binding z-score
Kindly provide the number alone.

Known PBM binding z-score results, listed for orientation:
* TCTTGTAGATCAAGCAGCTTAAGAAAGCCTGAGT | -0.253
* GCTTGTAGATCAAGGTTAAGTAAGACTAAGCTAA | 0.875
* ACTATTCGTTGAGACGAGGGCAACCGATAGGTTG | 0.886

For this sequence ( CGAACTAGGTTATTGACAGGACAGTGAATAGTAA ), measured PBM binding z-score is 0.837

For this sequence ( CATACAGGGTCACCTAGGCCAGAGTAGGGACGGC ), measured PBM binding z-score is 4.41

For this sequence ( AACTCTAGGTAAAGATAGTTCAGTGAATGCAAAT ), measured PBM binding z-score is 0.576

For this sequence ( CCTCGGAGGACAACAGGAGGTCAGAGCAGCCAGA ), measured PBM binding z-score is 2.87

For this sequence ( CAAACTAGGTCACGACAGGTCAAAGTCGAATGAC ), measured PBM binding z-score is 5.04

For this sequence ( CGAACTAGGCCATTGACAGGACAGTGAATAGTAA ), measured PBM binding z-score is 0.565

For this sequence ( TCTCGGAGTACACGAAAGGTCAGAGCTCGACATC ), measured PBM binding z-score is 3.79

For this sequence ( CCTACTGGGCCATTCAGGGGTCATTGATCATATG ), measured PBM binding z-score is 3.03

For this sequence ( CCGAGTAGGTTATGGGGCATGCAGGCAACGGTGA ), measured PBM binding z-score is 1.03

For this sequence ( TCTTGTAGATCAAGAGAGGTTAAGAAAGTGCGCT ), measured PBM binding z-score is 0.635

For this sequence ( TCTTGTAGATCAACGGTTAAGAAAGCCGAAGCCT ), measured PBM binding z-score is 0.235

For this sequence ( TAGCCTAGGTCATGCGGGCCAGTCTAGTGTCGGC ), measured PBM binding z-score is 3.86

For this sequence ( ATCGAAAGGTCGTGAGGTGAGGATACAGAAAGGC ), measured PBM binding z-score is 4.13

For this sequence ( GTACCCAGGTGAATAGGTCGTTGATGAGTAGGCG ), measured PBM binding z-score is 0.908

For this sequence ( ATCTCTAGGTAACAAGTTCAGGGAAAGAGAGGAC ), measured PBM binding z-score is 1.69

For this sequence ( CTACCAAGCTGAACAAGGTCGTTGATTACTATTC ), measured PBM binding z-score is 0.523

For this sequence ( AGAATGAGGTTATACGTAGTTCAGGGAAGAAAGT ), measured PBM binding z-score is 1.96

====

- System: PPARg:RXRa DBDmut IVT, anti-RXR (DBD mutation: RXRa K156A/R161A, NR concentration 270 nM, RXRa partner concentration 90 nM)
- method: PBM binding z-score (relative to random genomic background probes); higher = stronger binding; sequences stand for … in GC…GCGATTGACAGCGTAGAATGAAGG
assay metric: PBM binding z-score
Kindly provide the number alone.

Known PBM binding z-score results, listed for orientation:
- TCATATAGGTAAACAGGTCAAAGTCCGTAAGTTA: 5.17
- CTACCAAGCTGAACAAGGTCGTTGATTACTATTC: 0.107
- CATACAGGGTCAGCTAGGCCAGTGTAGGGACGGC: 1.02
- CCTAGTTGGTAAGGAGGTCACACACCGGATATGA: 1.63
- GGAACGAGGGCACGTTGATAGCAGAGTTTGATGG: 4.33

In the following, a different sequence is considered.
For this sequence ( GATACAGGGTCAAGGCCAGAGTTCGCGTATTGAT ), measured PBM binding z-score is 2.6

====

- System: RARb homodimer (NR concentration 270 nM)
- method: PBM binding z-score (relative to random genomic background probes); higher = stronger binding; sequences stand for … in GC…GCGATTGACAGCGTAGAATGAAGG
Parameter threshold = 3. Response is true when PBM binding z-score meets or exceeds it, else false.

• ATCTCTAGGTAACCTAGTTCAGTGAATGCCGAAC = false
• TCATATAGGTCAATGCTAGGTGAAAGTCCGATCT = true
• CGTCCAAGGTCAAAGTCAGTGAAAGAGACTCGAA = true
• ATCTCTAGGTAAAGACAGTTCAGTGAATGCAAAT = false

Then this sequence:
Hi team, for TCATATAGGTAAAAGGTGATAGTCGGTGTGGTAA , is the recorded PBM binding z-score at or above 3? false

====

- System: LXRa:RXRa (NR concentration 270 nM, RXRa partner concentration 90 nM)
- method: PBM binding z-score (relative to random genomic background probes); higher = stronger binding; sequences stand for … in GC…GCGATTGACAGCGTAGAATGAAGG
Parameter threshold = 1. Response is met when PBM binding z-score meets or exceeds it, else not met.

Worked cases, answers included:
- TATACAGGGTCAAAGGCCCGAGTACGAATGTCGA: met
- CCACGGAGGACAGAAGGTCAGAGCTGTCCGCTTT: met
- CAAACTAGGTCAAGGTCAAGGTCGGTTTGTGCCA: met
- ACTAGCAGGCCAAGTCTGGGTCACTCAAACAAAG: not met
- CGAACTAGGTCAGAACAGGACAGTGGAGGATGAT: not met

Then this sequence:
Hi team, for GCGACCGGGGCAAAGCAGGTTACCATAAGGTTGG , is the recorded PBM binding z-score at or above 1? not met

====

- Tested on: PPARg:RXRa DBDmut IVT, anti-RXR (DBD mutation: RXRa K156A/R161A, NR concentration 270 nM, RXRa partner concentration 90 nM)
- method: PBM binding z-score (relative to random genomic background probes); higher = stronger binding; sequences stand for … in GC…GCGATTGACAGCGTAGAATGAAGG
assay metric: PBM binding z-score
Kindly provide the number alone.

Known PBM binding z-score results, listed for orientation:
- TCATATAGGTAAACAGGTGAATGTCCGTAAGTTA: 4.88
- ATATGTAGGTTAGCTGGGGTCATTCTGACTAGGC: 7.04
- GCAGACAGGTGAAACGCAGGAAACTCAGGGTGGC: 0.874
- CCTAGGTGGTCAGGAGGTCACACACCGGATATGA: 0.549

For this sequence ( ACAGACAGATGATGAAGGTAACTCAGGCTATCAT ), measured PBM binding z-score is -0.169

For this sequence ( CCTGCTAGGTCAATGGTCAGCTACAGCAGCTCGC ), measured PBM binding z-score is 4.55
